# credit: ChEMBL document CHEMBL1150247

- assay_summary: Binding affinity to immobilized HIV1 YU2 gp120 by surface plasmon resonance method
- Set-up: species or system Human immunodeficiency virus 1
assay_metric: Kd (nM)
// return numeric value only (unit: nM, not printed)

{"molecule": "CC[C@H](C)[C@H](NC(=O)[C@@H](N)CCCNC(=N)N)C(=O)N[C@@H](CC(N)=O)C(=O)N[C@@H](CC(N)=O)C(=O)N[C@H](C(=O)N1C[C@H](n2cc(-c3ccccc3)nn2)C[C@H]1C(=O)N[C@@H](Cc1c[nH]c2ccccc12)C(=O)N[C@@H](CO)C(=O)N[C@@H](CCC(=O)O)C(=O)N[C@@H](C)C(=O)N[C@@H](CCSC)C(=O)N[C@@H](CCSC)C(=O)O)[C@@H](C)CC", "endpoint_unit": "nM", "val": 2700}

Could you tell me which Kd is on file for CCc1ccc(-c2cn([C@H]3C[C@@H](C(=O)N[C@@H](Cc4c[nH]c5ccccc45)C(=O)N[C@@H](CO)C(=O)N[C@@H](CCC(=O)O)C(=O)N[C@@H](C)C(=O)N[C@@H](CCSC)C(=O)N[C@@H](CCSC)C(=O)O)N(C(=O)[C@@H](NC(=O)[C@H](CC(N)=O)NC(=O)[C@H](CC(N)=O)NC(=O)[C@@H](NC(=O)[C@@H](N)CCCNC(=N)N)[C@@H](C)CC)[C@@H](C)CC)C3)nn2)cc1 ?
9
